Protein target, amino acids: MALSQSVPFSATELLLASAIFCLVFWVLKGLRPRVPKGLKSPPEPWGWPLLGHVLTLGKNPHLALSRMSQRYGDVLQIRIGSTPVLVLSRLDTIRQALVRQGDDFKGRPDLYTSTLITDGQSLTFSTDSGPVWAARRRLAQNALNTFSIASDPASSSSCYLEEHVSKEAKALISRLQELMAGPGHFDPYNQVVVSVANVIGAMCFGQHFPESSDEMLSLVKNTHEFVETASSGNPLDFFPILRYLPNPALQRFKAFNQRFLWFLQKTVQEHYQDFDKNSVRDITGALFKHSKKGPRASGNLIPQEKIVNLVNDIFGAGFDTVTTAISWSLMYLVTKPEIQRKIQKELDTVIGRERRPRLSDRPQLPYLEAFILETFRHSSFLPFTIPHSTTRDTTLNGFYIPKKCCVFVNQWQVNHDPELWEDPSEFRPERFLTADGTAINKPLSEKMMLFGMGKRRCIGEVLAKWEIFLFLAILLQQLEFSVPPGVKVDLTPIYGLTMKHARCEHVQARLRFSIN
readout: IC50

Please report the recorded IC50 for `Cn1c(=O)cc(Nc2cc(C(=O)NC3CC3)ccc2Cl)c2cnn(-c3ccc(F)cc3)c21` .
> 30 µM

###

target: Cytochrome P450 2C19 (Homo sapiens, UniProt P33261)
Sequence (P33261 whole entry): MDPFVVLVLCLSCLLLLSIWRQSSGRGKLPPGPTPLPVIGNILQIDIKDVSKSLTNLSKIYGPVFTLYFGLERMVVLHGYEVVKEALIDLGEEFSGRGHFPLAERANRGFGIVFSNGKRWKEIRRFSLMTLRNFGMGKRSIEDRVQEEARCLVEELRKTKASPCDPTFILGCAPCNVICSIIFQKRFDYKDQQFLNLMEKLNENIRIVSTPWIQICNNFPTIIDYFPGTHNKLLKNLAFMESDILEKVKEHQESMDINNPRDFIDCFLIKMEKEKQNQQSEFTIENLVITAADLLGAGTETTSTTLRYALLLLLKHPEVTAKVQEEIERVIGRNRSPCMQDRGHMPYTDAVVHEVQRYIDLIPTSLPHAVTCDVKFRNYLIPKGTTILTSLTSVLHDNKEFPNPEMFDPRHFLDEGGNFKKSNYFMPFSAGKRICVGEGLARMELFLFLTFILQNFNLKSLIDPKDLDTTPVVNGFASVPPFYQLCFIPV
readout: pIC50
Formally, pIC50 is defined as -log10 of the concentration c, with c in mol/L.

Recall the recorded pIC50 for `Cn1c(=O)cc(Nc2cc(C(=O)NC3CC3)ccc2Cl)c2cnn(-c3ccc(F)cc3F)c21` with Cytochrome P450 2C19 (Homo sapiens, UniProt P33261) and state it.
4.80

###

biological target: Mitogen-activated protein kinase 13 (Homo sapiens, UniProt O15264); experiment: Inhibition of p38delta
Sequence (O15264 whole entry): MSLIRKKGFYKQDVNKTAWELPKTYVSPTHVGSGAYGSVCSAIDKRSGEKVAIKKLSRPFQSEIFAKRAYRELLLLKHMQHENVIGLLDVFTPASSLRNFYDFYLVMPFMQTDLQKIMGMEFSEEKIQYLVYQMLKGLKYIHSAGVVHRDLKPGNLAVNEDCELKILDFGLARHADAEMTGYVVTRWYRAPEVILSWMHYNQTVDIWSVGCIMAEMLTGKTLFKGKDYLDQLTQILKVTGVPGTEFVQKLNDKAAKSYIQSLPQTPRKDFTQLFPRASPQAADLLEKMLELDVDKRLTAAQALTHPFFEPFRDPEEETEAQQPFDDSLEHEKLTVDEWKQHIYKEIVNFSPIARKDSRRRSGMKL
readout: IC50

Please report the recorded IC50 for `Cn1c(=O)cc(Nc2cc(C(=O)NC3CC3)ccc2Cl)c2cnn(-c3ccc(F)cc3)c21` .
> 10 µM

###

species: Homo sapiens; experiment: Protein binding in human plasma by ultrafiltration method; details: read-out: PPB (converted)
readout: fraction unbound

Please report the recorded fraction unbound for `Cn1c(=O)cc(Nc2cc(C(=O)NC3CC3)ccc2Cl)c2cnn(-c3ccc(F)cc3)c21` .
0.06

###

molecular target: Mitogen-activated protein kinase 14 (Homo sapiens, UniProt Q16539); assay: Inhibition of human recombinant p38alpha assessed as phosphorylation of ATF2 by scintillation proximity assay
Sequence (Q16539 whole entry): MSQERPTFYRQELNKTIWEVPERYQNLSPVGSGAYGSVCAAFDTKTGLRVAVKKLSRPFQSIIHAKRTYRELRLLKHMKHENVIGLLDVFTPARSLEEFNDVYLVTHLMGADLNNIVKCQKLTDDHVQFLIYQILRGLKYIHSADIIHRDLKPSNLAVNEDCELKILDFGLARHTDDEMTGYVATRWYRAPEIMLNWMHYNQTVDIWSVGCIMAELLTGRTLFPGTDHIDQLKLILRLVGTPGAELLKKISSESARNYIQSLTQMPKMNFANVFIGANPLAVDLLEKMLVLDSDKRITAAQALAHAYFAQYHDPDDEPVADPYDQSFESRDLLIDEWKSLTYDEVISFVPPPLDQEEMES
readout: pIC50
Formally, pIC50 is defined as -log10 of the concentration c, with c in mol/L.

Would you please look over these solved cases?
> print(dat)
                                        mol  reported
1  Cc1ccc(C(=O)NC2CC2)cc1Oc1cc(=O)n(C)c2c1cnn2-c1cc(F)ccc1F      8.21
2  CONC(=O)c1ccc(C)c(Nc2cc(=O)n(C)c3c2cnn3-c2ccc(F)cc2F)c1      8.96

Please report the recorded pIC50 for `Cn1c(=O)cc(Nc2cc(C(=O)NC3CC3)ccc2Cl)c2cnn(-c3cc(F)ccc3F)c21` .
8.96

Same lookup for `Cc1ccc(C(N)=O)cc1Nc1cc(=O)n(C)c2c1cnn2-c1cc(F)ccc1F` , please.
8.43

Same lookup for `Cc1ccc(C(=O)NC2CC2)cc1Oc1cc(=O)n(C)c2c1cnn2-c1cccc(F)c1` , please.
8.07

Same lookup for `Cc1ccc(C(=O)NC2CC2)cc1Nc1cc(=O)n(C)c2c1cnn2-c1c(F)cccc1F` , please.
8.72

Same lookup for `Cn1c(=O)cc(Nc2cc(C(=O)NC3CC3)ccc2Cl)c2cnn(-c3c(F)cccc3F)c21` , please.
8.96

###

assay: Half life in Sprague-Dawley rat at 2 mg/kg, iv; format: ADME, organism-based; set-up: dose 2 mg/kg, route intravenous; conditions: in vivo
readout: half-life (h)
Report the figure in h without appending any unit label.

> print(dat)
                                        mol  reported
1  CCn1c(=O)cc(Nc2cc(C(=O)NC3CC3)ccc2Cl)c2cnn(-c3ccc(F)cc3F)c21       3.4
2  CCn1c(=O)cc(Nc2cc(C(=O)NC3CC3)ccc2Cl)c2cnn(-c3ccc(F)cc3)c21       3.7

Shifting focus to the compound that follows.
Please report the recorded half-life for `CONC(=O)c1ccc(C)c(Nc2cc(=O)n(C)c3c2cnn3-c2ccc(F)cc2F)c1` .
3.3

###

test system: Blood; test: Inhibition of TNF-alpha-stimulated IL8 production in human whole blood incubated for 1 hr before TNFalpha challenge measured after 16 to 18 hrs; assay type: functional, tissue-based
pIC50: −log10 of the molar value.
readout: pIC50

Would you please look over these solved cases?
> print(dat)
                                        mol  readout  reported
1  Cn1c(=O)cc(NC2CCOCC2)c2cnn(-c3cccc(F)c3)c21    pIC50    < 5.60
2  Cn1c(=O)cc(Nc2ccc(F)cc2)c2cnn(-c3c(F)cccc3F)c21    pIC50    < 6.08
3  Cc1ccc(C(=O)O)cc1Nc1cc(=O)n(C)c2c1cnn2-c1ccc(F)cc1F    pIC50    < 5.60

Shifting focus to the compound that follows.
Please report the recorded pIC50 for `Cn1c(=O)cc(Nc2ccc(F)cc2F)c2cnn(-c3ccc(F)cc3F)c21` .
< 5.60
